- Test system: Malme-3M
- Experiment Description: NCI tumour cell line growth inhibition, 48 h
Calls of active or inactive are those of the source. No stated cut-off is given here; in the data, active = GI50 up to about 1.1 µM and inactive = higher.
This listing pairs molecules with measured GI50.
Property Name: GI50

{"Molecule": "COC(=O)C1(NC(=O)C(N)CC(=O)O)C(C)C1C (stereo not given)", "Observed": "> 100 µM (inactive)"}
{"Molecule": "CC(C)c1cccc(C(C)C)c1NC(=O)C(=O)C(C(=O)c1ccc2ccccc2c1)C1OC(=O)c2ccccc21 (stereo not given)", "Observed": "> 100 µM (inactive)"}
{"Molecule": "CC(C)(C)c1ccc(-c2nnc(SCc3ccc(Cl)cc3)n2-c2cccc(C(F)(F)F)c2)cc1", "Observed": "29.4 µM (inactive)"}
{"Molecule": "Nc1[nH]c(=O)[nH]c(=O)c1Cc1cccc(Cl)c1", "Observed": "> 100 µM (inactive)"}
{"Molecule": "O=C(Nc1ccccc1)c1cc2cc(CCl)ccc2oc1=O", "Observed": "> 100 µM (inactive)"}

---

Please consider the recorded GI50 for HCT-15 in what follows.
Property Name: GI50 (µM)

{"Molecule": "CCn1c2ccccc2c2ccc3c(c21)C(=O)c1ccccc1C3=O", "Property Name": "GI50", "Value Comparator": ">", "Observed": 100}
{"Molecule": "Cc1ccc(S(=O)(=O)/N=C(\\NN)Nc2ccc(Cl)cc2)cc1", "Property Name": "GI50", "Value Comparator": ">", "Observed": 100}
{"Molecule": "CS(=O)(=O)OC1CCC2(C#N)CCC1C2=O (stereo unspecified)", "Property Name": "GI50", "Value Comparator": "=", "Observed": 12.1}
{"Molecule": "CN(C)CCC(=O)c1ccccc1", "Property Name": "GI50", "Value Comparator": "=", "Observed": 24.1}
{"Molecule": "O=C1CC2CC3OC3[C@H]3c4cc5c(cc4C(=O)N1C23)OCO5 (stereo partly specified)", "Property Name": "GI50", "Value Comparator": ">", "Observed": 100}
{"Molecule": "COC(=O)c1cccc2c3ccccc3c3ccccc3c12", "Property Name": "GI50", "Value Comparator": "=", "Observed": 35.2}
{"Molecule": "O=C1NCN(c2ccccc2)C12CCN(CCCN1CCN(CCOC(c3ccccc3)c3ccccc3)CC1)CC2", "Property Name": "GI50", "Value Comparator": "=", "Observed": 1.86}
{"Molecule": "CCCn1c(SCC)c2ccccc2c1-c1nc(F)nc(F)n1", "Property Name": "GI50", "Value Comparator": ">", "Observed": 100}
{"Molecule": "CN(C)c1ccc(C2C(Cl)C(=O)N2NC(=O)c2c(Cl)c(Cl)c(Cl)c(Cl)c2-c2nc3ccccc3[nH]2)cc1 (stereo unspecified)", "Property Name": "GI50", "Value Comparator": "=", "Observed": 12.9}
{"Molecule": "Nc1nnc2oc3ccc4ccccc4c3cc1-2", "Property Name": "GI50", "Value Comparator": "=", "Observed": 28}
{"Molecule": "CC(C)(C)CC(C)(C)c1cc2c(O)c(c1)Cc1cc(C(C)(C)CC(C)(C)C)cc(c1O)Cc1cc(C(C)(C)CC(C)(C)C)cc(c1O)Cc1cc(C(C)(C)CC(C)(C)C)cc(c1O)C2", "Property Name": "GI50", "Value Comparator": ">", "Observed": 100}
{"Molecule": "CC1CCC2CC1NC(=O)CCOCCC(=O)NC2(C)C (stereo unspecified)", "Property Name": "GI50", "Value Comparator": ">", "Observed": 100}
{"Molecule": "Cn1c(=O)c(C(c2ccccc2)c2c(O)c3ccccc3n(C)c2=O)c(O)c2ccccc21", "Property Name": "GI50", "Value Comparator": ">", "Observed": 10}
{"Molecule": "CCOC(=O)c1cc(C(=O)O)c(=O)n2c1[nH]c1ccccc12", "Property Name": "GI50", "Value Comparator": "=", "Observed": 46.7}
{"Molecule": "O=C(O)C1OC1(c1cccc(Cl)c1)c1ccccc1Cl (stereo unspecified)", "Property Name": "GI50", "Value Comparator": "=", "Observed": 6.76}
{"Molecule": "CC(C)(C)N(Cc1ccoc1)C(=O)/C=C\\[S+]([O-])c1ccccc1 (stereo unspecified)", "Property Name": "GI50", "Value Comparator": "=", "Observed": 19.2}
{"Molecule": "Cc1cc(Br)cc(C)c1NC(=O)C(=O)CC(=O)c1sc(-n2nc(-c3ccccc3)cc2-c2ccccc2)nc1C", "Property Name": "GI50", "Value Comparator": ">", "Observed": 100}
{"Molecule": "CCN(CC)CCN1C=CC(C)C(C(=O)O)C1C(N)=O (stereo unspecified)", "Property Name": "GI50", "Value Comparator": ">", "Observed": 100}
{"Molecule": "CC(=O)OC1CC2CC(=O)CC1N2C (stereo unspecified)", "Property Name": "GI50", "Value Comparator": ">", "Observed": 100}
{"Molecule": "COC1OC(CBr)C(OC(=O)c2ccccc2)C(OS(=O)(=O)c2ccc(C)cc2)C1Br (stereo unspecified)", "Property Name": "GI50", "Value Comparator": ">", "Observed": 100}
{"Molecule": "Cc1ccc(Nc2nc(=O)c3c4ccccc4n(C(=O)OC(C)(C)C)c3s2)cc1", "Property Name": "GI50", "Value Comparator": "=", "Observed": 22.3}
